Listing of recorded IC50 by entry.
Molecular target: full-length human PKCι (Homo sapiens)
Construct: Recombinant, full-length human PKCι expressed in Sf21 insect cells is also commercially available
Sequence (P41743 1-596): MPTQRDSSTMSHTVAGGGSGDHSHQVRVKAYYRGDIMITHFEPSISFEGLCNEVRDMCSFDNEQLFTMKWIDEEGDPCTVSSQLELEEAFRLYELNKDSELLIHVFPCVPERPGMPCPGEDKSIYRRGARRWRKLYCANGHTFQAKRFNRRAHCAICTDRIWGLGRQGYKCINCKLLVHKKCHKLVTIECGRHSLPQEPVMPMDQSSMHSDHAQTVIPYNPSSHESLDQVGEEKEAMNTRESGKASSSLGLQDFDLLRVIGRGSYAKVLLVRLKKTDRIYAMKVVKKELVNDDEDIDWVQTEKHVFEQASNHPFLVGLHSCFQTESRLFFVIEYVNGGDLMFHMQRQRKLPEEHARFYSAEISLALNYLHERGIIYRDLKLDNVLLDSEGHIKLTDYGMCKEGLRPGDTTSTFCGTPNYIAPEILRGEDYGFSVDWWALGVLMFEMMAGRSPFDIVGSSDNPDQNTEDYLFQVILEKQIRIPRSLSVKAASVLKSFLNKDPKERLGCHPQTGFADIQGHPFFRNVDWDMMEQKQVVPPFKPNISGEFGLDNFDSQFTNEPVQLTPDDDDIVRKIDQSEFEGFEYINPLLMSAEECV
Experiment: PKCι IC50 IMAP fluorescence polarisation assay, full-length enzyme, 150 μM ATP
Conditions: read-out: IC50 in IMAP assay against full length PKCi at 150 μM ATP

>  <compound>
CC1(C)CNCC[C@@H]1Nc1nc(-c2ccnc(Nc3ncc(F)cc3F)c2)nc2cncc(C3CC3)c12

>  <IC50>
< 100 nM

$$$$
>  <compound>
FC(F)(F)c1cc2c(-c3nc(N4CCOC5CNCC54)c4c(C5CC5)cncc4n3)ccnc2[nH]1 (centres unmarked)

>  <IC50>
< 100 nM

$$$$
>  <compound>
C[C@H]1CNCC[C@H]1Nc1nc(-c2ccnc(Nc3nc(F)ccc3F)c2)nc2cncc(C3CCC3)c12 (single isomer, unassigned)

>  <IC50>
< 100 nM

$$$$
>  <compound>
O=C1NC2CC(Nc3nc(-c4ccnc5[nH]c6ccccc6c45)nc4cncc(C5CCC5)c34)CC2O1 (centres unmarked)

>  <IC50>
1000 to 10000 nM

$$$$
>  <compound>
CN(c1nc(-c2ccnc3[nH]c4ccccc4c23)nc2cncc(C3CCC3)c12)C1CC2NC(=O)OC2C1 (centres unmarked)

>  <IC50>
100 to 1000 nM

$$$$
>  <compound>
C[C@@H]1CNCC[C@H]1Nc1nc(-c2ccnc(Nc3nc(F)ccc3F)c2)nc2cncc(C3CC3)c12 (single isomer, unassigned) [Example 335]

>  <IC50>
< 100 nM

$$$$
>  <compound>
CC1(C)CNCC[C@@H]1Nc1nc(-c2ccnc(Nc3c(F)cccc3F)c2)nc2cncc(C3CCC3)c12

>  <IC50>
< 100 nM

$$$$
>  <compound>
CC1(C)CNCCC1Nc1nc(-c2ccnc(Nc3ccc(OC(F)(F)F)cc3)c2)nc2cncc(C3CCC3)c12 (centres unmarked)

>  <IC50>
100 to 1000 nM

$$$$
>  <compound>
CC1(C)CNCCC1Nc1nc(-c2ccnc(Nc3cc4ccccn4n3)c2)nc2cncc(C3CCC3)c12 (centres unmarked)

>  <IC50>
< 100 nM

$$$$
>  <compound>
O[C@H]1CNCC[C@H]1Nc1nc(-c2ccnc(Nc3ccc4ccccc4n3)c2)nc2cncc(C3CCC3)c12 (racemic)

>  <IC50>
< 100 nM

$$$$
>  <compound>
NC1CCN(c2nc(-c3ccnc4[nH]c5ccccc5c34)nc3cncc(C(F)(F)F)c23)C1 (centres unmarked)

>  <IC50>
100 to 1000 nM

$$$$
>  <compound>
FC(F)(F)c1cc2c(-c3nc(N4CC[C@H]5NCC[C@H]54)c4c(C5CCC5)cncc4n3)ccnc2[nH]1 (racemic)

>  <IC50>
< 100 nM

$$$$
>  <compound>
CC1(C)CNCC[C@@H]1Nc1nc(-c2ccnc(Nc3cc(F)ccn3)c2)nc2cncc(C3CC3)c12

>  <IC50>
< 100 nM

$$$$
>  <compound>
C[C@H]1C[C@@H](Nc2nc(-c3ccnc(Nc4nc(F)ccc4F)c3)nc3cncc(C4CCC4)c23)CCN1 (racemic)

>  <IC50>
< 100 nM

$$$$
>  <compound>
N[C@H]1C[C@H](Nc2nc(-c3ccnc4[nH]c5ccccc5c34)nc3cncc(C4CCC4)c23)C1

>  <IC50>
< 100 nM

$$$$
>  <compound>
CN(C)CC#Cc1cc2c(-c3nc(N4CCNCC4)c4c(C5CCC5)cncc4n3)ccnc2[nH]1

>  <IC50>
< 100 nM

$$$$
>  <compound>
Cc1cc2c(-c3nc(NC4CCNCC4(C)C)c4c(C5CCC5)cncc4n3)ccnc2[nH]1 (centres unmarked)

>  <IC50>
< 100 nM

$$$$
>  <compound>
C[C@H]1CNCC[C@@H]1Nc1nc(-c2ccnc(Nc3nc(F)ccc3F)c2)nc2cncc(C3CC3)c12 (single isomer, unassigned)

>  <IC50>
< 100 nM

$$$$
>  <compound>
CC1(C)CNCCC1Nc1nc(-c2ccnc(Nc3ncccc3F)c2)nc2cncc(C3CC3)c12 (centres unmarked)

>  <IC50>
< 100 nM

$$$$
>  <compound>
c1ccc2c(c1)[nH]c1nccc(-c3nc(N4CCOC5CNCC54)c4c(C5CCC5)cncc4n3)c12 (centres unmarked)

>  <IC50>
< 100 nM

$$$$
>  <compound>
Clc1ccccc1-c1cc2c(-c3nc(N4CCC5NCCC54)c4c(C5CC5)cncc4n3)ccnc2[nH]1 (centres unmarked)

>  <IC50>
< 100 nM

$$$$
>  <compound>
Fc1cccc(F)c1Nc1cc(-c2nc(N3CCOC4CNCC43)c3c(C4CCC4)cncc3n2)ccn1 (centres unmarked)

>  <IC50>
< 100 nM

$$$$
>  <compound>
O=S(=O)(Nc1cc(-c2nc(N3CCNCC3)c3c(C4CC4)cncc3n2)ccn1)c1ccc(F)cc1

>  <IC50>
100 to 1000 nM

$$$$
>  <compound>
CC1(C)CNCC[C@@H]1Nc1nc(-c2ccnc(Nc3ncccc3F)c2)nc2cncc(C3CC3)c12

>  <IC50>
< 100 nM

$$$$
>  <compound>
CN(c1nc(-c2ccnc3[nH]c(-c4cccnc4)cc23)nc2cncc(C3CC3)c12)C1CCNCC1(C)C (centres unmarked)

>  <IC50>
< 100 nM

$$$$
>  <compound>
CC1(C)CNCCC1Nc1nc(-c2ccnc(Nc3ccc(F)cn3)c2)nc2cncc(C3CCC3)c12 (centres unmarked)

>  <IC50>
< 100 nM

$$$$
>  <compound>
NC1CCC(Nc2nc(-c3ccnc4[nH]c5ccccc5c34)nc3cncc(C4CCC4)c23)C1 (centres unmarked)

>  <IC50>
< 100 nM

$$$$
>  <compound>
CC1(C)CNCC[C@@H]1Nc1nc(-c2ccnc(Nc3c(F)cccc3F)c2)nc2cncc(C3CC3)c12

>  <IC50>
< 100 nM

$$$$
>  <compound>
Fc1ccc(F)c(Nc2cc(-c3nc(N4CCC5NCCC54)c4c(C5CCC5)cncc4n3)ccn2)n1 (centres unmarked)

>  <IC50>
< 100 nM

$$$$

Values compiled from patent US10414763B2.
